Listed next: entries and their corresponding interaction score.
# ASSAY_TARGET: T1, 4H908-bN
# T1 chain: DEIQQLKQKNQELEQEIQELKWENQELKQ
# ASSAY_PROTOCOL: two-hybrid library CCNG1;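 also: natural log of median RNA to DNA barcode read ratio; higher means stronger binding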
The reply should be a number, written without any unit.

Sample answers from the record:
| BINDER | interaction score |
| --- | --- |
| DEIQQLKQENQELKQEIQELKWKIQELEQ [4H717-bN] | -0.377 |
| DEIQQLKQENQELKQKNQELEWEIQELKQ [4H754-bN] | -1.55 |
| DEIQQLEQKIQELKQENQELEWEIQELKQ [4H338-bN] | -0.434 |
| DEIQQLKQEIQELKQENQELKWKNQELEQ [4H607-bN] | -0.294 |
| DEIQQLEQEIQELKQEIQELEWKNQELKQ [4H72-bN] | -0.234 |
| DKIQQLKQEIQELKQKIQELKWENQELEQ [4H2667-bN] | -0.467 |

Supply recorded interaction score for DKIQQLKQEIQELEQEIQELKWKNQELKQ [4H2576-bN] here.
-0.577

Dear colleague, please send me the reported interaction score for DKNQQLKQKIQELEQEIQELKWKNQELEQ [4H3855-bN] when you can.
-0.268

Please look at this binder and report its interaction score: DKNQQLKQENQELKQEIQELEWKIQELKQ [4H3782-bN]
0.273

src = paper PMC10397247
